test system: T-47D breast; assay: NCI tumour cell line growth inhibition, 48 h; in the data active = GI50 below about 0.43 µM; inactive = the rest
Field 'call' accepts active, inactive

Just curious, what result did CCCCCCCCCCCCCCCC(=O)OCC1OC(n2cnc3c(=S)nc(N)[nH]c32)C(OC(=O)CCCCCCCCCCCCCCC)C1OC(=O)CCCCCCCCCCCCCCC (stereo unspecified) get here? inactive

Just curious, what result did C[C@@H]1COCCN1c1nc(-c2cnc(N)cc2C(F)F)nc(N2[C@H](C)COC[C@@H]2C)n1 get here? active

Just curious, what result did OCc1cccc(-c2ccc3ncc(-c4nc(NC5CC5)ncc4F)n3c2)c1 get here? active

Just curious, what result did CC/C=C\C/C=C\C[C@H](O)C/C=C1/C(=O)C=C[C@H]1C/C=C\CCC(=O)OC get here? inactive

Just curious, what result did Nc1ccccc1NC(=O)CCCCCCC(=O)Nc1ccc2c(c1)/C(=C/c1ccc[nH]1)C(=O)N2 get here? inactive

Just curious, what result did COc1ccc(Nc2ccnc(NCCNc3ccnc4cc(Cl)ccc34)n2)cc1 get here? inactive

Just curious, what result did CCCCCCCCCCCCCC[P+](CCCCCC)(CCCCCC)CCCCCC get here? active

Just curious, what result did CC1=C(C(=O)Nc2ccc3[nH]ncc3c2)C(c2ccc(F)cc2)NC(=O)N1 (stereo unspecified) get here? inactive

Just curious, what result did CC(=N\O)/C(C)=N/O.CC(=N\O)/C(C)=N/O.CC(=N\O)/C(C)=N/O.CC(=N\O)/C(C)=N/O.[Cu].[Cu] get here? inactive

Just curious, what result did CNC(=O)c1c(NC(=O)c2cccc(C(F)(F)F)c2)sc2c1CCC(=O)C2 get here? active

Just curious, what result did O=C(Nc1ncc(Cc2ccccc2)s1)c1ccc2c(c1)OCCCO2 get here? inactive

Just curious, what result did CCN(CC)c1ccc(N=C2C=C(C(=O)Nc3ccc(S(C)(=O)=O)cc3)C(=O)c3ccccc32)c(C)c1 get here? inactive

Just curious, what result did CSc1ccc(-c2cc(-c3ccc(NC(=O)CCCN4CCCC4)cc3)nc(-c3ccc(NC(=O)CCCN4CCCC4)cc3)c2)cc1 get here? inactive

Just curious, what result did N#Cc1c2ccccc2c2n1-c1ccccc1OC(c1ccccc1)C2=O (stereo unspecified) get here? inactive

Just curious, what result did Nc1c(C(=O)c2cccc(-c3ccc[n+]([O-])c3)c2)cnn1-c1ccc(F)cc1F get here? inactive

Just curious, what result did COc1cc(C(=O)/C=C/c2c(-c3ccc(F)cc3)nc3sc(C)cn23)cc(OC)c1OC get here? inactive

----------
test system: RPMI-8226 leukemia; assay: NCI tumour cell line growth inhibition, 48 h
Answer each item with its documented TGI.

Return TGI for the following molecule: N#CC(C#N)=Cc1c(O)ccc2ccccc12 38.6 µM

Return TGI for the following molecule: CC1=C(SCc2ccccc2)C(=O)c2ccccc2C1=O 7.36 µM

Return TGI for the following molecule: COCN1CCN=c2c1c1c3c(c4ccccc4n23)CCC1 > 100 µM

Return TGI for the following molecule: CSc1nc(NC2OCC(O)C(O)C2O)c(N)c(=O)n1C (stereo unspecified) > 100 µM

Return TGI for the following molecule: CN(C)c1ccc(C(=O)c2ccc(N(C)C)c(N)c2)cc1N > 100 µM

Return TGI for the following molecule: Cc1ccc(-n2c(O)c3c(N)n[nH]c3c(C#N)c2=O)cc1 > 100 µM

----------
test system: HCT-15 colon; experiment: NCI tumour cell line growth inhibition, 48 h
Answer each item with its documented TGI.

Return TGI for the following compound: COc1ccc(/C=C2\CC3C4CC=C5C[C@@H](O)CC[C@]5(C)C4CC[C@]3(C)\C2=N\O)cc1OC (stereo partly drawn) > 100 µM

Return TGI for the following compound: CC(=N\O)/C(C)=N/O.CC(=N\O)/C(C)=N/O.CC(=N\O)/C(C)=N/O.CC(=N\O)/C(C)=N/O.[Cu].[Cu] 42.1 µM

Return TGI for the following compound: CC1(C)CN(c2ccccc2)C(=O)C1OC(=O)[C@@]1(C)C[C@@H]2C=C[C@H]1C2 (stereo partly drawn) 55.1 µM

Return TGI for the following compound: C=CCN(c1cc(OCc2ccccc2)c(NC(C)=O)cc1[N+](=O)[O-])S(C)(=O)=O > 100 µM

Return TGI for the following compound: O=C(NCCCCNCCCNC(=O)c1ccccc1)c1ccccc1 > 100 µM

Return TGI for the following compound: CC1CCc2c(sc3ncnc(N/N=C/c4ccc(Cl)c(Cl)c4)c23)C1 (stereo not drawn) > 100 µM

Return TGI for the following compound: COc1cc2c(cc1OCCCOC1=C=C=C(c3ccc4c(c3)c3cc(-c5ccc(OCCCOc6cc7c(cc6OC)C(=O)N6CCC[C@H]6C=N7)cc5)ccc3n4S(=O)(=O)c3ccc(C)cc3)C=C1)N=C[C@@H]1CCCN1C2=O 20.3 µM

Return TGI for the following compound: O=C(OCCN1CCCCC1)C(c1ccccc1)C1(O)CCSCC1 (stereo not drawn) > 100 µM

----------
Answer each item with its documented TGI.
tested on: HS 578T breast; test: NCI tumour cell line growth inhibition, 48 h
Report as a plain number; the unit µM is understood.

Return TGI for the following molecule: CC(=Nc1c2ccccc2nc2ccccc12)N(C)C 69.8

Return TGI for the following molecule: CCN(CC)CCOc1ccc(Nc2ncc3cc(-c4c(Cl)cccc4Cl)c(=O)n(CCOC)c3n2)cc1 1.57

Return TGI for the following molecule: O=c1[nH]cnc2c1nnn2C1OC(CO)C(O)C1O (configuration not stated) 69.8

Return TGI for the following molecule: COc1ccc(-c2nsc3c2NC(=O)CC3c2ccc3c(c2)OCO3)cc1 (configuration not stated) 54.5

Return TGI for the following molecule: C1#Cc2ccccc2OCCOc2ccccc2C#Cc2ccccc2OCCOc2ccccc21 64.3

Return TGI for the following molecule: C=C1C(=O)O[C@H]2[C@H]1CC/C(CNS(=O)(=O)c1ccc3ccccc3c1)=C\CC[C@@]1(C)O[C@@H]21 29.1

Return TGI for the following molecule: O=C1c2ccccc2-c2c1c1ccc([N+](=O)[O-])cc1c(=O)n2CCNCCCNCCn1c2c(c3ccc([N+](=O)[O-])cc3c1=O)C(=O)c1ccccc1-2 31.4

Return TGI for the following molecule: O=c1c2ccccc2n2nnc3ccc(NCCCNCCNCCCNc4ccc5nnn6c7ccccc7c(=O)c4c56)c1c32 37.6

----------
test system: MALME-3M melanoma; test: NCI tumour cell line growth inhibition, 48 h; in the data active = GI50 below about 0.43 µM; inactive = the rest
Field 'call' accepts true = active, false = inactive

Just curious, what result did Cn1c(=O)c(Oc2cccc(F)c2)cc2cnc(NC3CCOCC3)nc21 get here? false

Just curious, what result did COc1ccc(C2=CC(c3cc(OC)c(OC)c(OC)c3)NC(=O)N2)cc1OC (stereo not drawn) get here? false

Just curious, what result did CCCCCCCCCCCCCC[P+](CCCCCC)(CCCCCC)CCCCCC get here? true

Just curious, what result did CCN(CC)c1ccc(N=C2C=C(C(=O)Nc3ccc(S(C)(=O)=O)cc3)C(=O)c3ccccc32)c(C)c1 get here? false

Just curious, what result did O=C(Cn1c(=O)c(-c2ccccc2)nc2ccccc21)c1cccnc1 get here? false

Just curious, what result did Cc1[nH]c(C(=O)Nc2ccc(C(=O)N3CCNCC3)cc2OC(C)C)c(Cl)c1Cl get here? false

Just curious, what result did NC1CCCCC1N.O=C([O-])P(=O)([O-])[O-].[Na+].[Pt+4] (stereo not drawn) get here? false

Just curious, what result did N#Cc1c2ccccc2c2n1-c1ccccc1OC(c1ccccc1)C2=O (stereo not drawn) get here? false

Just curious, what result did Cc1ccccc1S(=O)(=O)N1[C@H](c2ccc(Cl)cc2)C(C(=O)N[C@@H](Cc2ccccc2)C(N)=O)=C[C@@H]1C(C)(C)C get here? false

Just curious, what result did COc1cc(C(=O)/C=C/c2c(-c3ccc(F)cc3)nc3sc(C)cn23)cc(OC)c1OC get here? false

Just curious, what result did COC(=O)Nc1nc2ccc(Oc3ccc(NC(=O)Nc4cccc(Br)c4)cc3)cc2[nH]1 get here? false

Just curious, what result did NS(=O)(=O)c1ccc(C2C3=C(CCCC3=O)OC3=C2C(=O)c2ccccc2C3=O)cc1 (stereo not drawn) get here? true

Just curious, what result did O=CN1N=C(c2ccc(Nc3ccnc4cc(Cl)ccc34)cc2)CC1c1ccccc1 (stereo not drawn) get here? false

Just curious, what result did OCCCCC#Cc1ccccc1C#Cc1ccccc1F get here? false

Just curious, what result did OCc1cccc(-c2ccc3ncc(-c4nc(NC5CC5)ncc4F)n3c2)c1 get here? true

Just curious, what result did COc1cc([C@@H]2c3cc4c(cc3C(Br)[C@H]3COC(=O)[C@H]23)OCO4)cc(OC)c1OC (stereo partly drawn) get here? false

Just curious, what result did CN(C)/C=C/c1nnnn1-c1ccc(Cl)cc1 get here? false

Just curious, what result did CC1=C(C(=O)Nc2ccc3[nH]ncc3c2)C(c2ccc(F)cc2)NC(=O)N1 (stereo not drawn) get here? false

Just curious, what result did CC(=N\O)/C(C)=N/O.CC(=N\O)/C(C)=N/O.CC(=N\O)/C(C)=N/O.CC(=N\O)/C(C)=N/O.[Cu].[Cu] get here? false

Just curious, what result did CCOC(=O)c1c2c(n3ccc(NC(=O)OC(C)(C)C)cc13)C(=O)c1ncccc1C2=O get here? true

Just curious, what result did O=[N+]([O-])c1cc(O)c(O)cc1-c1cn2ccsc2n1 get here? false

Just curious, what result did CC/C=C\C/C=C\C[C@H](O)C/C=C1/C(=O)C=C[C@H]1C/C=C\CCC(=O)OC get here? false

Just curious, what result did COc1cc2c(cc1OCCCOC1=C=C=C(c3ccc4c(c3)c3cc(-c5ccc(OCCCOc6cc7c(cc6OC)C(=O)N6CCC[C@H]6C=N7)cc5)ccc3n4S(=O)(=O)c3ccc(C)cc3)C=C1)N=C[C@@H]1CCCN1C2=O get here? false
